Where do these numbers come from? They come from PubChem BioAssay (NCI).

Assign TGI to each entry below.
- System: UACC-62 melanoma
- protocol: NCI tumour cell line growth inhibition, 48 h

# annotated cases, reported TGI shown
[[record]]
line_notation = "O=C1Cc2cn[nH]c2-c2ccccc2N1"
assay_system = "UACC-62 melanoma"
assay_readout = "TGI"
obs_value = "63.5 µM"

[[record]]
line_notation = "O=[N+]([O-])c1ccc(N=Nc2c(O)[nH]c3ccccc23)c([N+](=O)[O-])c1"
assay_system = "UACC-62 melanoma"
assay_readout = "TGI"
obs_value = "> 100 µM"

[[record]]
line_notation = "CCOC(=O)c1nc2ccc(C(F)(F)F)cc2nc1Nc1ccc(OC)cc1"
assay_system = "UACC-62 melanoma"
assay_readout = "TGI"
obs_value = "> 100 µM"

[[record]]
line_notation = "COc1ccc(Br)c(C(=O)N2CCc3ccccc32)c1N"
assay_system = "UACC-62 melanoma"
assay_readout = "TGI"
obs_value = "> 100 µM"

[[record]]
line_notation = "Cc1cc(S(N)(=O)=O)c(S/C(=N\\NS(=O)(=O)c2ccccc2)c2ccc(Cl)cc2)cc1Cl"
assay_system = "UACC-62 melanoma"
assay_readout = "TGI"
obs_value = "> 100 µM"

[[record]]
line_notation = "CCOc1nc2c(N3CCCC3)nc(N3CCNCC3)nc2nc1NCc1ccccc1"
assay_system = "UACC-62 melanoma"
assay_readout = "TGI"
obs_value = "3.25 µM"

[[record]]
line_notation = "COc1cc(OC)c2c(=O)c3cccc(C)c3n(C)c2c1"
assay_system = "UACC-62 melanoma"
assay_readout = "TGI"
obs_value = "> 100 µM"

[[record]]
line_notation = "Cc1ccc(-c2cc(-c3ccccc3)c(C#N)c(=O)[nH]2)cc1"
assay_system = "UACC-62 melanoma"
assay_readout = "TGI"
obs_value = "> 100 µM"

[[record]]
line_notation = "COc1cc2c(c(OC)c1OC)C(=O)NCCC2"
assay_system = "UACC-62 melanoma"
assay_readout = "TGI"
obs_value = "> 100 µM"

[[record]]
line_notation = "Nc1ccccc1C#Cc1ccccc1C#Cc1cccs1"
assay_system = "UACC-62 melanoma"
assay_readout = "TGI"
obs_value = "28.6 µM"


// next item, TGI requested
Exercise: Given CN1CC[C@H](c2c(O)cc(O)c3c(=O)cc(-c4ccccc4Cl)oc23)[C@H](O)C1 , state its recorded TGI.
Key: 0.164 µM
